- Test system: DLD-1 BRCA2−/− cells
- Assay info: Homologous recombination synthetic lethal inhibition of proliferation, DLD-1 BRCA2-/- (Cell Titre Glo 3D)
- Format: cell-based
- Test conditions: Homo sapiens, DLD-1, first proliferation column (c5); DLD-1 BRCA2-/-; read-out: POLQ PD Prolif Lumin (converted)
Observable: IC50 (nM)

Compound: CC1(Oc2ncnc3c2nc(-c2ccc(OCCC(=O)O)cc2Cl)n3Cc2cccc(C(F)(F)F)c2)CC1 [Example T151]
Unit info: nM
Result value: 398
//
Compound: Cc1ccccc1Cn1c(-c2ccc(OCCC(=O)O)cc2Cl)nc2c(OC3(C)CC3)ncnc21 [Example T168]
Unit info: nM
Result value: 1260
//
Compound: Cc1ccnc(Cn2c(-c3ccc(N4CC(O)C4)cc3Cl)nc3c(OC4(C)CC4)ncnc32)c1 [Example T115]
Unit info: nM
Result value: 200
//
Compound: Cc1ccnc(Cn2c(-c3ccc(O[C@@H]4CNC(=O)C4)cc3Cl)nc3c(OC4(C)CC4)ncnc32)c1 [Example T184]
Unit info: nM
Result value: 251
//
Compound: Cc1ccnc(Cn2c(-c3ccc(CC(=O)N4CC5(CCN5)C4)cc3Cl)nc3c(OC4(C)CC4)ncnc32)c1 [Example T556]
Unit info: nM
Result value: 6310
//
Compound: Cc1ccnc(Cn2c(-c3ccc(C4CCNC4=O)cc3Cl)nc3c(OC4(C)CC4)ncnc32)c1 (racemic) [Example T176]
Unit info: nM
Result value: 794
//
Compound: Cc1ccnc(Cn2c(-c3ccc(OC4CNC(=O)OC4)cc3Cl)nc3c(OC4(C)CC4)ncnc32)c1 (racemic) [Example T187]
Unit info: nM
Result value: 1000
//
Compound: Cc1ccnc(Cn2c(-c3ccc(NC(=O)NCCO)cc3Cl)nc3c(OC4(C)CC4)ncnc32)c1 [Example T132]
Unit info: nM
Result value: 2000
//
Compound: Cc1cc(Cn2c(-c3ccc(OCCN4CCNCC4)cc3Cl)nc3c(OC4(C)CC4)ncnc32)ccn1 [Example T531]
Unit info: nM
Result value: 6310
//
Compound: CC1(Oc2ncnc3c2nc(-c2cccc(OCCOCC(=O)O)c2Cl)n3Cc2cccc(Cl)c2)CC1 [Example T162]
Unit info: nM
Result value: 126
//
Compound: Cc1cnc(Cn2c(-c3ccc(O[C@H]4CCN(C)C4)cc3Cl)nc3c(OC4(C)CC4)ncnc32)s1 [Example T140]
Unit info: nM
Result value: 251
//
Compound: Cc1ccnc(Cn2c(-c3ccc(CC(=O)N4CCNCC4)cc3Cl)nc3c(OC4(C)CC4)ncnc32)c1 [Example T495]
Unit info: nM
Result value: 794
//
Compound: CC(C)(CCOc1ccc(-c2nc3c(OC4(C)CC4)ncnc3n2Cc2cccc(Cl)c2)c(Cl)c1)CC(=O)O [Example T562]
Unit info: nM
Result value: 126
//
Compound: Cc1ccnc(Cn2c(-c3ccc(OCCCF)cc3Cl)nc3c(OC4(C)CC4)ncnc32)c1 [Example T108]
Unit info: nM
Result value: 126
//
Compound: Cc1cccc(C)c1Cn1c(-c2ccc(OCCC(C)C(=O)O)cc2Cl)nc2c(OC3(C)CC3)ncnc21 (racemic) [Example T571]
Unit info: nM
Result value: 1260
//
Compound: Cc1ccnc(Cn2c(-c3ccc(CCN4CCCC4)cc3Cl)nc3c(OC4(C)CC4)ncnc32)c1 [Example T505]
Unit info: nM
Result value: 158
//
Compound: Cc1ccnc(Cn2c(-c3ccc(OCCN4CCCC4)cc3Cl)nc3c(OC4(C)CC4)ncnc32)c1 [Example T507]
Unit info: nM
Result value: 100
//
Compound: Cc1cnc(Cn2c(-c3ccc(OC4CCNCC4)cc3Cl)nc3c(OC4(C)CC4)ncnc32)s1 [Example T138]
Unit info: nM
Result value: 501
//
Compound: CC1(Oc2ncnc3c2nc(-c2ccc(OCCN4CCNCC4)cc2Cl)n3Cc2ncsc2Cl)CC1 [Example T145]
Unit info: nM
Result value: 2000
//
Compound: Cc1ccnc(Cn2c(-c3ccc(N4C[C@H]5CCN[C@H]5C4)cc3Cl)nc3c(OC4(C)CC4)ncnc32)c1 [Example T494]
Unit info: nM
Result value: 316
//
Compound: Cc1ccnc(Cn2c(-c3ccc(N4CCOCC4=O)cc3Cl)nc3c(OC4(C)CC4)ncnc32)c1 [Example T182]
Unit info: nM
Result value: 631
//
Compound: COCCOc1ccc(-c2nc3c(OC4(C)CC4)ncnc3n2Cc2cc(C)ccn2)c(Cl)c1 [Example T125]
Unit info: nM
Result value: 100
//
Compound: Cc1ccnc(Cn2c(-c3ccc(OC4CNC(=O)C4)cc3Cl)nc3c(OC4(C)CC4)ncnc32)c1 (racemic) [Example T179]
Unit info: nM
Result value: 316
//
Compound: Cc1cc(Cl)nc(Cn2c(-c3ccc(OCCN4CCNCC4)cc3Cl)nc3c(OC4(C)CC4)ncnc32)c1 [Example T524]
Unit info: nM
Result value: 501
//
Compound: Cc1ccnc(Cn2c(-c3ccc(CC(=O)N4C5CNCC4C5)cc3Cl)nc3c(OC4(C)CC4)ncnc32)c1 [Example T557]
Unit info: nM
Result value: 6310
//
Compound: CCNC(=O)c1ccc(-c2nc3c(OC4(C)CC4)ncnc3n2Cc2cc(C)ccn2)c(Cl)c1 [Example T114]
Unit info: nM
Result value: 316
//
Compound: CC1(Oc2ncnc3c2nc(-c2cccc(OCCCc4nn[nH]n4)c2Cl)n3Cc2cccc(Cl)c2)CC1 [Example T163]
Unit info: nM
Result value: 251
//
Compound: CN(C)CCOc1ccc(-c2nc3c(OC4(C)CC4)ncnc3n2Cc2cc(Cl)ccn2)c(Cl)c1 [Example T135]
Unit info: nM
Result value: 50.1
//
Compound: CC1(Oc2ncnc3c2nc(-c2ccc(OCCCN4CC[C@@H](O)C4)cc2Cl)n3Cc2cc(C(F)(F)F)ccn2)CC1 [Example T554]
Unit info: nM
Result value: 316

Recorded values, source patent US20250195530A1.
